# Assay target: AedaeACPR-I (Aedes aegypti)
# Construct: only the ACPR-I transcript yields a complete receptor protein which we functionally deorphanized; expressed in transfected cells; host or cells: CHO-K1 cells stably expressing aequorin, transient transfection with pcDNA3.1+
# Sequence (A0A2L0VBG2 whole entry): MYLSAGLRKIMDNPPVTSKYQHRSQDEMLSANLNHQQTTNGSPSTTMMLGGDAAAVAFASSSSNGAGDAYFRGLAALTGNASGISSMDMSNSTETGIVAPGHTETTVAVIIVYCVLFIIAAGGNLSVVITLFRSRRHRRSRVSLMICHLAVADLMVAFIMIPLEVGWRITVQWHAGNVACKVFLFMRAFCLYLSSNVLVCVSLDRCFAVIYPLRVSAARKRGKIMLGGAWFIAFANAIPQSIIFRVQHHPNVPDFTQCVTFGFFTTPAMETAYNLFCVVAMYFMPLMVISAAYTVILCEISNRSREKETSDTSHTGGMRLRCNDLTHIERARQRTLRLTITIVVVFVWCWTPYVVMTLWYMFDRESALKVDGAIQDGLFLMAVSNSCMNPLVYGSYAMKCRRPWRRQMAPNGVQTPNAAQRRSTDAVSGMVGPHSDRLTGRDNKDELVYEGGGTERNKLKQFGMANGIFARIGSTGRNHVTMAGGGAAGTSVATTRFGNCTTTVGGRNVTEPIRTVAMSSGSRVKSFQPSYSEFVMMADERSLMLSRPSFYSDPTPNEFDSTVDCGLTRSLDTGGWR
# Procedure details: Heterologous receptor functional assay (aequorin bioluminescence) in CHO-K1 cells transiently expressing AedaeACPR-I
# Format: cell-based
# Condition: CHOK1-aeq cells transiently expressing AedaeACPR-I; peptide doses 10^-12 to 10^-5 M in quadruplicate; luminescence response; average of multiple independent biological replicates (four independent transfections)
No end group written: not given here.
Quick list: EC50 per entry.
Endpoint: EC50

• AGNSGANSGMWFGPRL-NH2 [AedaeCAPA-PK1] = > 10 µM
• GPTVGLFAFPRV-NH2 [AedaeCAPA1] = > 10 µM
